Each recorded value in this set is attributed to patent EP4696688A1.

Target: human CYP11B2 (Homo sapiens, UniProt P19099)
Construct: The main elements of an expression plasmid include ORF of human CYP11B1 or human CYP11B2
Sequence (P19099 25-503): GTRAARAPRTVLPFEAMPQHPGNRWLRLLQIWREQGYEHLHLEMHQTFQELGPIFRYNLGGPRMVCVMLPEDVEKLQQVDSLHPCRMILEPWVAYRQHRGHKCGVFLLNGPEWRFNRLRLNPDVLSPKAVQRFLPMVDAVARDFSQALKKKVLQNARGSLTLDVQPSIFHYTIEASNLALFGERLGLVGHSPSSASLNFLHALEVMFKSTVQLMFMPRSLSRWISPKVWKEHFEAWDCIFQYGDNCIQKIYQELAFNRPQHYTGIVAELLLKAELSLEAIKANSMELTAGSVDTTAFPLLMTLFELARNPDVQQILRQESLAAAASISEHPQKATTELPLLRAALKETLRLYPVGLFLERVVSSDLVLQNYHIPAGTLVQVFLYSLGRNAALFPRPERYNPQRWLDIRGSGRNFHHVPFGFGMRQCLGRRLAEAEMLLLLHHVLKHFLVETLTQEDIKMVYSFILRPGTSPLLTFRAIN
Experiment: G-402 cell enzyme experiment, CYP11B2 (aldosterone product, HTRF)
Details: G-402 cells stably expressing human CYP11B2, 1 µM 11-deoxycorticosterone, 16 h
pEC50: −log10 of the molar value.
endpoint_name: pEC50

Answered examples (2):
>  <compound>
COc1ccc2cc(-c3cncc(N4CC5(CN(C(C)=O)C5)C4)n3)ccc2n1

>  <pEC50>
7.32

$$$$
>  <compound>
CCC(=O)NC1CCCc2c(-c3ccc4nc(OC)ccc4c3)cncc21 (centres unmarked)

>  <pEC50>
7.62

$$$$

a. CCC(=O)NC1CC2(C1)CN(c1cncc(-c3ccc4nc(OC)ccc4c3)c1)C2
b. COCC(=O)N1CC2(C1)CN(c1cncc(-c3ccc4nc(OC)ccc4c3)c1)C2
c. COc1ccc2cc(-c3cncc(N4CC5(CN(C(=O)c6ccc(C)nc6)C5)C4)c3)ccc2n1
d. CCS(=O)(=O)N1CC(Oc2cncc(-c3ccc4nc(OC)ccc4c3)c2)C1
Let's sort these by pEC50, smallest first. Go ahead? Returns: the labels arranged in the requested order. a, b, c, d
(a: 7.49, b: 7.77, c: 8.10, d: 8.30)

###

molecular target: human CYP11B1 (Homo sapiens); construct: The main elements of an expression plasmid include ORF of human CYP11B1 or human CYP11B2; expressed in transfected cells; assay: G-402 cell enzyme experiment, CYP11B1 (cortisol product, HTRF), selectivity versus CYP11B2; assay type: cell-based; conditions: human selective factor: ratio of CYP11B1 EC50 to CYP11B2 EC50; G-402 cells
Sequence (P15538 25-503): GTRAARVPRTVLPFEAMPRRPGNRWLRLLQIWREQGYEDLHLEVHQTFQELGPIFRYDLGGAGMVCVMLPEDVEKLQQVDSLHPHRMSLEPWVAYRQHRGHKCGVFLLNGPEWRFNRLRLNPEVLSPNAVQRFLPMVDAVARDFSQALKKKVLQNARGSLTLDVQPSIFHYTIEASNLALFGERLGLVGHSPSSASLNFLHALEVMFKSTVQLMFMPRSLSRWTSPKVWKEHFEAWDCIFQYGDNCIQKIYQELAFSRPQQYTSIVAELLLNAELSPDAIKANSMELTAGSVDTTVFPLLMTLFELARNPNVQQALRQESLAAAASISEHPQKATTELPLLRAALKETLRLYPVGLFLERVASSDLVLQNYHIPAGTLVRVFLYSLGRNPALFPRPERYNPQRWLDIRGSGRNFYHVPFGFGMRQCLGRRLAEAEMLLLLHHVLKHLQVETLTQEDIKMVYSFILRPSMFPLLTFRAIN
endpoint_name: hsF (x)

I. Cn1c(=O)ccc2cc(-c3cncc(C4=CCN(S(=O)(=O)C5CC5)CC4)c3)ccc21 [Example 70]
II. CN(c1cncc(-c2ccc3c(ccc(=O)n3C)c2)c1)C1CN(C(=O)c2cnn(C)c2)C1 [Example 74]
When I and II are compared, which has the higher number for hsF? Please reply using the label of the selected record. II

A. COc1ccc2cc(-c3cncc(N4CC5(CCN(C(=O)c6cnn(C)c6)C5)C4)c3)ccc2n1 [Example 51]
B. Cn1cc(C(=O)N2CC(Oc3cncc(-c4ccc5c(c4)sc(=O)n5C)c3)C2)cn1 [Example 91]
Which value of hsF is smaller, the one for A or the one for B ? Please reply using the label of the selected record. A
(A: 157 x, B: 2278 x)

P. COc1ccc2cc(-c3cncc(N4CC5(CN(C(=O)C6(F)CC6)C5)C4)c3)ccc2n1 [Example 94]
Q. COc1ccc2cc(-c3cncc(NC4CN(C(=O)c5cnn(C)c5)C4)c3)ccc2n1 [Example 40]
Which value of hsF is smaller, the one for P or the one for Q ? Please reply using the label of the selected record. P
